From: PubChem BioAssay (NCI)

- System: A549/ATCC NSCLC
- PROCEDURE_SUMMARY: NCI-60 one-dose screen, 48 h (100 = growth as untreated, 0 = no growth, -100 = all killed)
- CONDITION_SET: 10 µM unless noted
- Description: Growth inhibition of the A549/ATCC human Non-Small Cell Lung tumor cell line is measured as a screen for anti-cancer activity. Cells are grown in 96 well plates and exposed to the test compound for 48 hours. Compounds are tested at a single concentration, which is 10^-5 M for most compounds. The reported endpoint is percent growth (GI% or GIPRCNT), where numbers from 0 - 100% represent growth inhibition, and numbers from -100% - 0 represent cell death. […]
About 83,000 compounds went through this panel and 20% of them were active in at least one assay; those are over-represented in the sample as a whole.
READOUT_LABEL: growth (%)
Kindly provide the numeric value in % only, without the unit symbol.

Below, 2 compounds whose answers are already recorded.
>  <COMPOUND>
C[C@@H]1N=C(c2ccc3ccccc3c2)Nc2nc3ccccn3c2C1=O

>  <READOUT_LABEL>
growth

>  <UOM>
%

>  <TEST_RESULT>
39.5

$$$$
>  <COMPOUND>
CCOC(=O)Cn1c(-c2nonc2NC(=O)c2ccccc2F)nc2ccccc21

>  <READOUT_LABEL>
growth

>  <UOM>
%

>  <TEST_RESULT>
24

$$$$

Look up and state reported growth for CS(=O)(=O)c1ccc(C(=O)N2N=C(c3ccccc3)CC2c2ccc3c(c2)OCO3)cc1 (centres undefined)
80.2

// fetch growth given entry COc1ccc(-c2nc3ccccc3n3cccc23)cc1
102

Return value of growth for input COc1cccc(-c2nc3sccn3c2-c2ccnc(NCCN3CCCNS3(=O)=O)n2)c1 , no commentary.
99.2

Query growth for C=CC(=O)N1CN(C(=O)C=C)CN(C(=O)C=C)C1
94.6

Indicate its recorded growth; the compound in question is Fc1ccc(-c2nc(-c3ccc(-c4nc5ccc(F)cc5[nH]4)cc3)no2)cc1
75.4

---

The entries below are paired with their reported growth.
- Tested on: HCT-15 colon
- PROCEDURE_SUMMARY: NCI-60 one-dose screen, 48 h (100 = growth as untreated, 0 = no growth, -100 = all killed)
- CONDITION_SET: 10 µM unless noted
- Protocol: Growth inhibition of the HCT-15 human tumor cell line is measured as a screen for anti-cancer activity. Cells are grown in 96 well plates and exposed to the test compound for 48 hours. Compounds are tested at a single concentration, which is 10^-5 M for most compounds. The reported endpoint is percent growth (GI% or GIPRCNT), where numbers from 0 - 100% represent growth inhibition, and numbers from -100% - 0 represent cell death. For example, a value of 40 represents 60% growth inhibition. […]
The panel holds about 83,000 compounds, 20% with a hit somewhere; the sample as a whole holds those more often.
Provide only the numeric value, understood in %.

Recorded growth, per entry:
>  <COMPOUND>
CCCCCCCCCCCCCC

>  <UOM>
%

>  <growth>
106

$$$$
>  <COMPOUND>
O=C1c2cccc3cccc(c23)C(=O)N1CCCCCCCCCCN1C(=O)c2cccc3cccc(c23)C1=O

>  <UOM>
%

>  <growth>
102

$$$$
>  <COMPOUND>
CC(C)CCSc1nc(-c2ccc(F)cc2)c(C#N)c(N2CCN(C)CC2)n1

>  <UOM>
%

>  <growth>
83.6

$$$$
>  <COMPOUND>
CC(C)[C@@]12C[C@@H](OC(=O)C3CO3)[C@@](C)(O1)[C@@H]1CC[C@@H](C)[C@H]1[C@@H]2OC(=O)/C=C/c1ccccc1 (stereo not given in full)

>  <UOM>
%

>  <growth>
98.1

$$$$

Report growth, nothing else, for this compound: Clc1cccc(CNc2c3ccccc3nc3ccccc23)c1
14

---

- Tested on: SK-OV-3 ovarian
- PROCEDURE_SUMMARY: NCI-60 one-dose screen, 48 h
- CONDITION_SET: 10 µM unless noted
About 83,000 compounds went through this panel and 20% of them were active in at least one assay; those are over-represented in the sample as a whole. Activity calls are given as the source filed them. How the source made its calls: active means growth percent below 10; inactive means the rest.
Returns: one label drawn from 1.0 = active, 0.0 = inactive

A selection of reference data follows.
>  <MOLECULE>
O=C(Nc1ccc(Br)cc1)Nc1cccc(Br)c1

>  <LABEL_CLASS>
0.0

$$$$
>  <MOLECULE>
COc1ccc(-c2nc3ccccc3n3cccc23)cc1

>  <LABEL_CLASS>
0.0

$$$$
>  <MOLECULE>
COc1ccc2[nH]cc(C3(c4c[nH]c5ccc(OC)cc45)C(=O)Nc4ccc(Cl)cc43)c2c1

>  <LABEL_CLASS>
0.0

$$$$

Assay result, entry COc1cc([N+](=O)[O-])cc(OC)c1OC — outcome?
0.0

Call for entry O=C(CC(=O)c1cccc(Cl)c1)c1cccc(Cl)c1 :
0.0

What is the recorded call for this molecule in the test? O=C1C=CN2C(=O)CC=CC2[C@@H]1O (stereo partly specified)
0.0

Outcome logged for CCCCCCCCCCCCCCCCCC(=O)OCCCCCCCCCCCCC in this assay:
0.0

// param item: S=C(Nc1ccc(Cl)cc1)Nc1ccc(Cl)cc1 (tested in a mixture with another compound) ; yields the recorded call
1.0

Recorded call for O=C(CCCN1CCC(O)(c2ccc(Br)cc2)CC1)c1ccc(F)cc1 ?
0.0

Which result was noted for this molecule in the test: COc1ccc(Oc2nc(Nc3ccc(N4CCOCC4)cc3)ncc2NC(=O)Nc2cccc(OC)c2)cc1
0.0

Look up the recorded call for Clc1ccc(-c2nc(-c3cccs3)no2)cc1 in this test.
0.0

---

A collection of molecules and their measured growth
- System: OVCAR-4 ovarian
- PROCEDURE_SUMMARY: NCI-60 one-dose screen, 48 h (100 = growth as untreated, 0 = no growth, -100 = all killed)
- CONDITION_SET: 10 µM unless noted
This is part of a sample that, as a whole, favours compounds with a hit. Of some 83,000 tested, about 20% had one in any assay.
Express the result in % but write the number alone.

Here's what some known entries look like.
>  <MOLECULE>
COc1ccc2nc3ccccc3c(NCc3ccc(Cl)cc3)c2c1

>  <growth / %>
24.5

$$$$
>  <MOLECULE>
COc1cc(CN(CCC(O)N2CCCC2=O)Cc2ccc3c(c2)OCO3)cc(OC)c1OC (stereo not given)

>  <growth / %>
108

$$$$
>  <MOLECULE>
O=C(Nc1ccc([N+](=O)[O-])cc1)c1cc2ccccc2cc1O

>  <growth / %>
1.96

$$$$

Answer with the recorded growth of Nc1c(N)c2ccccc2c2ccccc12 only.
96.5

Return the recorded growth value; entry: CC(=O)NC1C(O[C@H]2C[C@H]3[C@@H]4CC=C5C[C@@H](O)CC[C@]5(C)[C@H]4CC[C@]3(C)[C@H]2[C@H](C)C(=O)CCC(C)C)OCC(O)C1O (stereo not given in full)
87.8

Look up growth of CCN(CC)CCCC(C)Nc1ccnc2ccc(Oc3ccccc3)cc12 (stereo not given) and report it.
66.6

Return value of growth for input Cc1ccccc1NC(=O)c1sc2nc3c(cc2c1N)C(=O)CCC3 , no commentary.
67.6

Please report the measured growth for Nc1nc(N)c2cc(NCc3ccc(Cl)c(Cl)c3)ccc2n1
-86.9

Find the measured growth of COc1cc(C)c(Cl)cc1C1=NN(c2ccc(S(N)(=O)=O)cc2)C(/C=C/c2ccccc2)C1 (stereo not given) and report it.
28.1

Give a short answer stating reported growth for O=C(N/N=C/c1ccccc1O)c1ccncc1 .
48.9

---

- Tested on: CAKI-1 renal
- PROCEDURE_SUMMARY: NCI-60 one-dose screen, 48 h (100 = growth as untreated, 0 = no growth, -100 = all killed)
- CONDITION_SET: 10 µM unless noted
The panel holds about 83,000 compounds, 20% with a hit somewhere; the sample as a whole holds those more often. Active and inactive are the calls of the source. How the source made its calls: active means growth percent below 10; inactive means the rest.
As shown below, each of these molecules has a reported growth value.

Field: example entries. Status: answers known.
>  <MOLECULE>
C=CCOC(=O)C1=C(C)NC2=C(C(=O)CCC2)C1c1ccc(F)cc1 (configuration not stated)

>  <growth>
84.7% (inactive)

$$$$
>  <MOLECULE>
CC(C)(C)c1ccc(C(=O)Nc2sc3cc(O)ccc3c2C(N)=O)cc1

>  <growth>
77.3% (inactive)

$$$$
>  <MOLECULE>
NC(=S)N1N=C(c2ccc(Cl)cc2)CC1c1cc2ccccc2[nH]c1=O (configuration not stated)

>  <growth>
114% (inactive)

$$$$
>  <MOLECULE>
COc1cc(OC)c2sc(-c3ccc(-n4cncc4-c4ccc(OC)c(N)c4)cc3)nc2c1

>  <growth>
60.9% (inactive)

$$$$

Give the reported value of growth for this record: CC(=O)C1CCC2C3CC(C)=C4CC(O)CCC4(C)C3CCC12C (configuration not stated)
97.4% (inactive)

Quote growth reported for COc1cc(C2CC(=O)Nc3c2cnn3C)cc(OC)c1OC (configuration not stated) please.
106% (inactive)

State, in one line, measured growth of C#Cc1cccc(Nc2nc3cc([N+](=O)[O-])ccc3nc2Nc2ccc(O)cc2)c1
36.4% (inactive)

Query growth for Cc1c(C(N)=O)sc2ncn(CC(=O)NN=C3CCCCC3)c(=O)c12
132% (inactive)

Give reported growth value for CNC(=O)c1c(NC(=O)c2cccc(C(F)(F)F)c2)sc2c1CCC(=O)C2
-22.5% (active)

Find the measured growth of CCN1C(=O)N(CC)C2C1NN=c1s/c(=C\c3ccc(Br)cc3)c(=O)n12 (configuration not stated) and report it.
23.8% (inactive)

Tell me measured growth for O=C1NN(C(=O)c2ccccc2)C(c2ccc(Cl)c(Cl)c2)=C/C1=C\c1ccccc1[N+](=O)[O-] please.
24.1% [6.75 µM] (inactive)

Name the recorded growth of the molecule listed here: COc1ccc(C2=NNC(c3ccc(Oc4nc5c(c(=O)n(C)c(=O)n5C)n4C)c(OC)c3)C2)cc1 (configuration not stated)
102% (inactive)

// Input: Nc1c(C(=O)C[C@@H](N)CO)ccc2c1C(=O)CCO2 . Output its growth only.
29.8% (inactive)

State its growth for this molecule: C=CCN(CC#N)CC=C
107% (inactive)

Report growth for O=C1Nc2ccccc2/C1=C\c1nc(C2CCN(S(=O)(=O)c3ccc(F)cc3)CC2)n2ccccc12
57.8% (inactive)
